assay method text: Evaluation of conversion rate to active form in buffer solution (Experimental Example 1)
Assay type: physicochemical
test conditions: pH7.0, 2 hr
property label: Residual rate (%)
One number for each entry, in %.

Use these answered entries as a reference point.
CNC(=O)O[C@@H]1CN(C)CC[C@@H]1c1c(O)cc(O)c2c(=O)cc(-c3ccccc3Cl)oc12 [Comparative Example 5, reference compound]
93.9
CN1CC[C@H](c2c(OC(=O)N(C)CCN)cc(O)c3c(=O)cc(-c4ccccc4Cl)oc23)[C@H](O)C1 [Comparative Example 13, reference compound]
0.0

Turning now to a further record.
Query string: Name the recorded Residual rate of the compound listed here: CCNC(=O)O[C@@H]1CN(C)CC[C@@H]1c1c(O)cc(O)c2c(=O)cc(-c3ccccc3Cl)oc12 [Comparative Example 4, reference compound]
Result string: 97.6
